experimental-readout: melting point

[[record]]
query_smiles = "COC(=O)[C@@H]1C[C@H](OC(=O)Nc2ccc([N+](=O)[O-])cc2)C(=O)[C@H]2[C@@]1(C)CC[C@H]1C(=O)O[C@H](c3ccoc3)C[C@]21C"
value_measured = "251 to 253 °C"

[[record]]
query_smiles = "COC(=O)[C@@H]1C[C@H](OC(=O)Cc2ccccc2)C(=O)[C@@H]2[C@@]3(C)C[C@@H](c4ccoc4)OC(=O)[C@H]3CC[C@]21C"
value_measured = "111 to 114 °C"

[[record]]
query_smiles = "COC(=O)[C@@H]1C[C@H](OS(=O)(=O)c2ccc(OC)cc2)C(=O)[C@@H]2[C@@]3(C)C[C@@H](c4ccoc4)OC(=O)[C@H]3CC[C@]21C"
value_measured = "148 to 149 °C (dec.)"

[[record]]
query_smiles = "COC(=O)[C@@H]1C[C@H](OC(=O)c2cccc(Br)c2)C(=O)[C@@H]2[C@@]3(C)C[C@@H](c4ccoc4)OC(=O)[C@H]3CC[C@]21C"
value_measured = "195 to 199 °C"

[[record]]
query_smiles = "COC(=O)[C@@H]1C[C@H](OC(=O)c2cc3ccccc3o2)C(=O)[C@H]2[C@@]1(C)CC[C@H]1C(=O)O[C@H](c3ccoc3)C[C@]21C"
value_measured = "226 to 227 °C"

[[record]]
query_smiles = "COC(=O)[C@@H]1C[C@@H](C(=O)CCc2ccccc2)C(=O)[C@@H]2[C@@]3(C)C[C@@H](c4ccoc4)OC(=O)[C@H]3CC[C@]21C"
value_measured = "155 to 158 °C"

[[record]]
query_smiles = "COC(=O)[C@@H]1C[C@H](OC(=O)c2cccs2)C(=O)[C@H]2[C@@]1(C)CC[C@H]1C(=O)O[C@H](c3ccoc3)C[C@]21C"
value_measured = "143 to 145 °C"

[[record]]
query_smiles = "COC(=O)[C@@H]1C[C@H](OC(=O)c2ccsc2)C(=O)[C@H]2[C@@]1(C)CC[C@H]1C(=O)O[C@H](c3ccoc3)C[C@]21C"
value_measured = "211 to 212 °C"


Prompt: Param item = `COC(=O)[C@@H]1C[C@H](OC(=O)c2ccccc2Br)C(=O)[C@@H]2[C@@]3(C)C[C@@H](c4ccoc4)OC(=O)[C@H]3CC[C@]21C` ; retrieve measured melting point.
Completion: 189 to 191 °C

Prompt: Param item = `COC(=O)[C@@H]1C[C@H](OS(=O)(=O)c2ccccc2)C(=O)[C@@H]2[C@@]3(C)C[C@@H](c4ccoc4)OC(=O)[C@H]3CC[C@]21C` ; retrieve measured melting point.
Completion: 157 to 159 °C (dec.)

Prompt: Param item = `COC(=O)[C@@H]1C[C@H](OS(=O)(=O)c2ccc(C)cc2)C(=O)[C@@H]2[C@@]3(C)C[C@@H](c4ccoc4)OC(=O)[C@H]3CC[C@]21C` ; retrieve measured melting point.
Completion: 163 to 165 °C (dec.)
